Test system: Plasmodium berghei
procedure_details: Screen against P. berghei liver stage (PbLuc), transformed with Luciferase, at 10uM
Format: functional, HepG2
stated_conditions: tested at 10 uM
Out of some 69,000 compounds screened, about 8,600 (12%) showed an effect of 50% or more. The entries come from a sample that favours strong results as a whole.
Labelling: INHIBITION reported below 30% becomes met; at or above becomes not met.

Below are worked cases with known answers.
>>> category_label("CC(C)N(C)Cc1cnc2n1CCN(Cc1cccc(F)c1)C2")
"met"
>>> category_label("CN(C)C(=O)Cn1c(C2CC2)c(CN2CCSCC2)c2cccnc21")
"met"
>>> category_label("NC(=O)c1ccnc(N2CCN(Cc3ccc(F)cc3Cl)CC2)c1")
"not met"
>>> category_label("COCCNC(=O)CCN1C(=O)CC2(CCCC2)C1=O")
"met"
>>> category_label("CSc1ncccc1C(=O)NCCC(O)c1ccco1 (stereo not given)")
"not met"
>>> category_label("CCn1ccnc1CNCC(c1ccc(C)s1)N1CCOCC1 (stereo not given)")
"not met"
>>> category_label("Cc1ccc(C(CNCc2nccn2C)N2CCOCC2)s1 (stereo not given)")
"not met"
>>> category_label("CN1CCN(Cc2ccccc2Oc2cncc(C(N)=O)n2)CC1")
"met"

Query: Bench note: check whether CC(SCC(=O)N(C)CC(=O)NC1CC1)c1ccc(F)c(F)c1 (stereo not given) shows INHIBITION below 30%
Reply: met

Query: Bench note: check whether CCCn1cc(C(=O)NC(C)c2c(C)nn(CC)c2C)c(C)n1 (stereo not given) shows INHIBITION below 30%
Reply: not met

Query: Bench note: check whether CSc1ncccc1C(=O)NCCC(O)c1cccs1 (stereo not given) shows INHIBITION below 30%
Reply: met

Query: Bench note: check whether CSc1ccccc1C(=O)NCCC(O)c1ccco1 (stereo not given) shows INHIBITION below 30%
Reply: not met

Query: Bench note: check whether "COc1ccc(CN2CCCN(c3cc(C(N)=O)ccn3)CC2)cc1" shows INHIBITION below 30%
Reply: met

###

Measured INHIBITION of individual entries
Test system: Plasmodium berghei
procedure_details: Screen against P. berghei liver stage (PbLuc), transformed with Luciferase, at 10uM
Type: functional, HepG2
stated_conditions: tested at 10 uM
Out of some 69,000 compounds screened, about 8,600 (12%) showed an effect of 50% or more. For the sample, strong results were picked, then their nearest neighbours and some compounds at random.
State just the number; it will be interpreted in %.

Use these answered entries as a reference point.
>>> assay_result("CCn1cc(CNC(=O)C2CCCC2)cn1")
38.3
>>> assay_result("CSCC(=O)N1CCCC(CCC(=O)N(C)CCc2ccccn2)C1 (stereo not given)")
29.2
>>> assay_result("CNC(=O)c1nc2c(s1)CCN(C(=O)Cc1ccc(OC)cc1)CC2")
14.2

Measured INHIBITION (Plasmodium berghei), entry CCCc1nnc(NC(C)c2ccc3c(c2)OCCO3)o1 (stereo not given) : 53.9

Measured INHIBITION (Plasmodium berghei), entry Cc1nc(CCNC(C)c2ccc3c(c2)OCCCO3)cs1 (stereo not given) : 10

Measured INHIBITION (Plasmodium berghei), entry "COC(=O)CCC(=O)N1CCc2nc(C(=O)N3CCOCC3)sc2CC1" : -4.99

Measured INHIBITION (Plasmodium berghei), entry "CC(C)Oc1ccc2c(NC(=O)CN(C)C)nn(CC(F)(F)F)c2c1" : 42.3

Measured INHIBITION (Plasmodium berghei), entry "Cc1nnc2n1CCN(Cc1nc(-c3ccoc3)no1)C2" : -16.75
